Counter-ions that a name gives are not always drawn.
In this section we review reported melting point values for a set of compounds.
OBSERVATION_TYPE: melting point

{"COMPOUND": "CS(=O)(=O)O.CS(=O)(=O)O.Cc1cc(C(=O)NC(=N)N)cc2c1Oc1c(Cl)cc(N3CCN(CC4CC4)CC3)cc1CS2(=O)=O", "ASSAY_RESULT": "282 to 287 °C"}
{"COMPOUND": "CS(=O)(=O)O.CS(=O)(=O)O.Cc1cc(C(=O)NC(=N)N)cc2c1Oc1c(Cl)cc(NC(=O)CNC3CC3)cc1CS2(=O)=O", "ASSAY_RESULT": "188 to 190 °C"}
{"COMPOUND": "CS(=O)(=O)O.CS(=O)(=O)O.Cc1cc(C(=O)NC(=N)N)cc2c1Oc1c(Cl)cc(N3CCN(CCO)CC3)cc1CS2(=O)=O", "ASSAY_RESULT": "185 to 187 °C"}
{"COMPOUND": "CS(=O)(=O)O.CS(=O)(=O)O.Cc1cc(C(=O)NC(=N)N)cc2c1Oc1c(Cl)cc(N3CCN(C4CC4)CC3)cc1CS2(=O)=O", "ASSAY_RESULT": "245 to 248 °C"}
{"COMPOUND": "CS(=O)(=O)O.CS(=O)(=O)O.CS(=O)(=O)O.Cc1cc(C(=O)NC(=N)N)cc2c1Oc1c(Cl)cc(NCCN3CCN(CCO)CC3)cc1CS2(=O)=O", "ASSAY_RESULT": "218 to 220 °C"}
{"COMPOUND": "CS(=O)(=O)O.CS(=O)(=O)O.Cc1cc(C(=O)NC(=N)N)cc2c1Oc1c(Cl)cc(N3CCN(C4CCC4)CC3)cc1CS2(=O)=O", "ASSAY_RESULT": "275 to 277 °C"}
{"COMPOUND": "CC(C)c1cccc2c1Oc1ccc(C(=O)NC(=N)N)cc1S(=O)(=O)C2.CS(=O)(=O)O", "ASSAY_RESULT": "220 to 222 °C"}
{"COMPOUND": "Cc1cc(C(=O)N=C(N)N)cc2c1Oc1c(Cl)cc(CN)cc1CS2(=O)=O (as salt: mesylate)", "ASSAY_RESULT": "242 to 244 °C"}
{"COMPOUND": "CCN1CCN(c2cc(Cl)c3c(c2)CS(=O)(=O)c2cc(C(=O)NC(=N)N)cc(C)c2O3)CC1.CS(=O)(=O)O.CS(=O)(=O)O", "ASSAY_RESULT": "255 to 257 °C"}
{"COMPOUND": "Cc1cc(C(=O)N=C(N)N)cc2c1Oc1c(Cl)cc(N)cc1CS2(=O)=O (as salt: sulfonic acid salt)", "ASSAY_RESULT": "190 to 192 °C"}
{"COMPOUND": "CCN(CCN1CCCC1)c1cc(Cl)c2c(c1)CS(=O)(=O)c1cc(C(=O)N=C(N)N)cc(C)c1O2 (as salt: mesylate) [Example 73, dimesylate]", "ASSAY_RESULT": "258 to 260 °C"}
{"COMPOUND": "CS(=O)(=O)O.CS(=O)(=O)O.Cc1cc(C(=O)NC(=N)N)cc2c1Oc1c(Cl)cc(NC(=O)CN3CCCCC3)cc1CS2(=O)=O", "ASSAY_RESULT": "178 to 180 °C"}
{"COMPOUND": "Cc1cc(C(=O)N=C(N)N)cc2c1Oc1c(Cl)cc(NCCn3ccnc3)cc1CS2(=O)=O (as salt: mesylate) [Example 64, dimesylate]", "ASSAY_RESULT": "243 to 244 °C"}

Value source: patent US8183234B2
